PROCEDURE_DETAILS: yeast display, Sf9 membrane polyspecificity reagent, FACS + sequencing; frameworks hold sequencing errors
READOUT_KIND: polyreactivity (PSR sort gate)

* QVQLQESGGGLVQAGGSLRLSCAASGIIVDADIMGWYRQAPGQERDLVASITDGGRTNYADSVKGRFTISRDNAKNTVYLQMNSLKPEDTAVYYCAAIAYPDIPTYFDYDSEYFYCGQGTQVTVSS | low polyreactivity
* QVQLVESGGGLVQAGGSLRLSCAASGSIFQGYAMGWYRQAPGKERELVAAITASGGSTYYADSVKRRFTISRDNAKNTVYLQMNSLKPEDTAVYYCATDSYWRQDLYRYEYWGQGTQVTVSS | high polyreactivity
* QVQLVESGGGLVQEGGSLRLICAASGRTFGTNAMGWYRQAPAKERELVAGINYSDGSTYYADSVKGRFTITRDNAKNTVYLQMNSMKPEDTAVYYCAADPGWAWWELNYWGQGTQVTVSS | low polyreactivity
* QVQLVESGGGLVQAGGSLRLSCASSGITFGVYAMGWYRQAPGKERELVAAISRRGAYTYYADSVKGRFTISRDNGKNTVYLQMNSLKPEDTAVYYCAAYLARRQYDYWGQGTQVTVSS | high polyreactivity
* QVQLVESGGGLVQAGGSLRLRCAASGRIFGLYAMGWYRQAPGKERQLVAAISRGGGSTYYADSVKGRFTISRDNAKNTVYLQMNSLNPEDTEVYYCATGLGYFSRLDYCGQGTQVTVSS | low polyreactivity
* QVQLVESGGGLVQAGGSLRLSCAASGYMGWYRQAPGKERELVATISGSGGSTYYADSVKGRFTISRDNAKNTVYLQMNSLKPEDTAVYYCTTEIWGVNRSGYDYWGQGTQVTVSS | low polyreactivity
* QVQLVESGGGLVQAGGILRLSCAASGSIFRQYARGWYRQAPGKERAFVAAITRRGGSTRYADSVKGRFTISRDNAKNTVYLQMNSLKPEDSAVEYCAARGVPGLHRYYYWGQGTQVTVSS | high polyreactivity
* QVQLVESGGGLVQAGGSLRLSCAASGSTFYDNTMGWYRQPPGKERELVAVITTDGDRTYYADSVKGRFTISRDNAKNTVYLQMKSLKPEDTAVYYCNARRAYWVVYPGDDYWGQGTQVSVSS | low polyreactivity
* QVQLVESGGGLFQAGGSLRLSCAASGGIFYGNVMGWYRQAPGKERELVADITSVGSTYYADSVKGRFTISRDNAKNTVYLQMNSLIPEDTAVYYCAAEPDHVADSHSGYDYWGQGTQVTVSS | low polyreactivity
* QVQLVASGGGLVQAGGSLRLRCAASGFIFRYNTMGWYRQAPGKEREMVAVINRGGSTYYADSVKGRFTISRDNAKNTVYLQLNSLKAEDTGVYDCNVAKFGRYYYWGQGTQVTVSS | high polyreactivity
* QVQLVESGGGLVQAGGSLRLSCAASGLTFGYYAMGWYRQAPGKERELVAVISGGGGTHYADSVKGRFTISRDNAKNTVYLQMNSLKPEDTAVYYCAAYTYRRYDYWGQGTQVTVSS | high polyreactivity
* QVQLVESGGGLVQAGGSLRLSCAASGSTFIYYAMGWYRQAPGKERELVAVITGNGGRTYYADSVKGRFTISRDNAKNTVYLQMNSLKPEDTAVYYCAALYDGIYDSWGQGTQVTVSS | high polyreactivity
* QVQLVESGGGLVQAGGSLRLSCAASGSTFISYDMGWYRQAPGKERELVADITSVGGSTYYADSVKGRFTISRDNAKNTVYLQMNSLKPEDTAVYYCNAEAEWEEEGGSWGQGTQVTVSS | low polyreactivity
* QVQLVESGGGLVQAGGSLRLSCAASGITLDVNAMGWYRQAPGKERELVADITWSDDTTYYADSVKGRFTISRDNAKNTVYLQMNSLKPEDTAVYYCAADVSVSFHPRGYDYWGQGTQVTVSS | low polyreactivity
* QVQLVESGGCLVQAGGSLRLSCAASGFTFRYYAMGWYRQAPGKERELVAGITSGSRTNYADSVKGRFTISRDNAKNTVYLQMNSLKPEDSAVYYCAARIYNYQSWYDYWGQGTQVTVSS | high polyreactivity
* QVQLVESGGGLVQAGGSLRLSCAASGFTLAGYDMGWYRQAPGKERELVATISTYADSVKGRFTISRDNAKNTVYLQMNSLKPEDTAVYDCAKKYVWTHNYWGQGTQVTVSS | low polyreactivity
* QVQLVESGGGLVQAGGSLRLSCAASGSTFRGYVMGWYRQAPGKERELVAAITYSGGSTYYADSVKGRFTISRDNAKNTVYLQLNSLKPEDTAVYYGADEIYDSYYEDDYWGQGTQVTVSS | high polyreactivity
* QVQLVESGGGLVQAGGSLRLSCAASGRTFYLNAMGWYRPAPGKDRELVATITSRAGSTRYADSVKGRFTISRDNAKNTVYLQMNSLKPEDTAVYYCAVRSTDPYRRGPSYYYWGQGTQVTVSS | high polyreactivity
* QVQLVESGVGLVQAGGSLRLSCAASGSIFASYAMGWYRQAPGKERELVAAISRSGTSTRYADSVKGRFTISRDNAKNTVYLQMNSLKPEDTAVYYCAARWYVFFRKYDYWGQGTQVTVSS | high polyreactivity
* QVQLVESGGGLDQAGGSLRLSCAPSGSTFVGYALGWYRQAPGKERELVAAITRGGGSTYYADSVKGRFTISRDNAKNTVYLQMNSLKPEDTAVYYCAAYQHPGLRTSYEYWGQGTQVTVSS | low polyreactivity
* QVQLVESGGGLVQAGGSLRLSCAASGFIFRNYVMGWKRPAPGKERELVADITFSGGGTYYADSVKGRFTISRDNAKNTVYLLMNSLIPEDTAVYYCAVYWNWQYDYCGQGTQVTVSS | high polyreactivity
